Ref: patent US20210087281A1

binders and their reported pEC50
target: T1, native mouse MET on living cells (mouse, UniProt P16056 25-1379); assay: flow cytometry, MLP29 cells
T1 construct: whole, on cells; also called Mouse cells (MLP29); mouse epithelial cells expressing MET
pEC50: −log10 of the molar value.

{"binder": "71A3 chimeric llama-human IgG1 mAb (antibody, V domains shown, llama VH on human IgG1 CH1-CH2-CH3, llama VL on human lambda CL) VH: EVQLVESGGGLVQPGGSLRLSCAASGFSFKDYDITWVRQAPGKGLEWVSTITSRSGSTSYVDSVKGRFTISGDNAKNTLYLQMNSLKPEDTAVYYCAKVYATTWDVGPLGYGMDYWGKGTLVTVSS VL: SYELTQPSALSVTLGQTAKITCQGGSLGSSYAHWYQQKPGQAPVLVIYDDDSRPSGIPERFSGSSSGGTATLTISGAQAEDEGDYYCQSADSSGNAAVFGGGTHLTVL", "pEC50": 9.09}
{"binder": "71G2 chimeric llama-human IgG1 mAb (antibody, V domains shown, llama VH on human IgG1 CH1-CH2-CH3, llama VL on human lambda CL) VH: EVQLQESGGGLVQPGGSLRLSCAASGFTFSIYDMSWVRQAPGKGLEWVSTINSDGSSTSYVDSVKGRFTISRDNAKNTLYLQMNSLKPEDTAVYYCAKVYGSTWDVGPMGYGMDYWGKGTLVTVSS VL: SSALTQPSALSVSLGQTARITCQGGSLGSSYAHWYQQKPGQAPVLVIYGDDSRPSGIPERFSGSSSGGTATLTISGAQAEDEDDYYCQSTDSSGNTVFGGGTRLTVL", "pEC50": 9.16}
